target: estrone sulfatase (Homo sapiens); construct: Estrone Sulfatase Assay with Intact Cells; assay: Estrone sulfatase assay with intact MCF-7 cells; conditions: concentration giving 50 % inhibition, 24 h, 3H-estrone sulfate substrate
Sequence (P08842 22-583): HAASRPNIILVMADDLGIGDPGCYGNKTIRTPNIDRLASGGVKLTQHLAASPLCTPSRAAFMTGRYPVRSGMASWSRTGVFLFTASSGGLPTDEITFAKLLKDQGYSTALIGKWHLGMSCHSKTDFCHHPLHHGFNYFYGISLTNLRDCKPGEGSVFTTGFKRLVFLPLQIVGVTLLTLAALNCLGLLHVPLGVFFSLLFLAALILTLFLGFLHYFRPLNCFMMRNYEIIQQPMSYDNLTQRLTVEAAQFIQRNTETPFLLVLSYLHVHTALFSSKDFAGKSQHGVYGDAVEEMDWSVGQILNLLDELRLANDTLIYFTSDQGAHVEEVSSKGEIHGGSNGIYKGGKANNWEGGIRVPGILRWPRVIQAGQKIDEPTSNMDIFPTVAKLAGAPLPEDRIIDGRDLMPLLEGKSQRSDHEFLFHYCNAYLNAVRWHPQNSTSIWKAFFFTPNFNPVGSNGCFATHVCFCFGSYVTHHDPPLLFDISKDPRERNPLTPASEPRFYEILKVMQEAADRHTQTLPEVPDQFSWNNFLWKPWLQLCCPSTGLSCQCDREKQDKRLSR
Value Type: pIC50
// scale note: pIC50 = -log10(conc_M); give the bare number

// worked examples, pIC50 included
| Compound | Measured On | Quantitative Result |
| --- | --- | --- |
| CC/C=C1/CC[C@H]2[C@@H]3CCc4cc5c(cc4[C@H]3CC[C@]12C)C=NS(=O)(=O)O5 [Compound 32] | estrone sulfatase (Homo sapiens) | 7.24 |
| CCC/C=C1/CC[C@H]2[C@@H]3CCc4cc5c(cc4[C@H]3CC[C@]12C)C=NS(=O)(=O)O5 [Compound 33] | estrone sulfatase (Homo sapiens) | 6.14 |
| C[C@]12CC[C@@H]3c4cc5c(cc4CC[C@H]3[C@@H]1CC[C@@H]2O)OS(=O)(=O)N=C5 [Compound 10] | estrone sulfatase (Homo sapiens) | 7.70 |
| CCCC[C@H]1CC[C@H]2[C@@H]3CCc4cc5c(cc4[C@H]3CC[C@]12C)C=NS(=O)(=O)O5 [Compound 36] | estrone sulfatase (Homo sapiens) | 6.23 |
| C[C@]12CC[C@@H]3c4cc5c(cc4CC[C@H]3[C@@H]1CCC2=O)OS(=O)(=O)N=C5 [Compound 6] | estrone sulfatase (Homo sapiens) | 8.03 |

Exam item: Item C[C@]12CC[C@@H]3c4cc5c(cc4CC[C@H]3[C@@H]1CC[C@@H]2O)OS(=O)(=O)NC5 [Compound 11] has what recorded pIC50?
Marked response: 6.09

Exam item: Item CO[C@H]1CC[C@H]2[C@@H]3CCc4cc5c(cc4[C@H]3CC[C@]12C)C=NS(=O)(=O)O5 [Compound 43] has what recorded pIC50?
Marked response: 7.30
